Each recorded value in this set is attributed to ChEMBL document CHEMBL1961873.

molecular target: Activated CDC42 kinase 1 (Homo sapiens); conditions: at 1 µM
Description: GSK_PKIS: TNK2 mean inhibition at 1 uM [Nanosyn]
Catalogue of molecules with associated inhibition
Your answer is read as %, so omit the unit and give the number.

Challenge: // Input: O=C(O[C@H]1CN[C@H](C#Cc2cc3ncnc(Nc4ccc5c(ccn5Cc5cc(F)ccc5F)c4)c3s2)C1)N1CCOCC1 . Output its inhibition only.
Response given: 0.98

Challenge: // Input: CN(c1ccc(NC(=O)NCCN2CCOCC2)cc1)c1ccnc(Nc2ccc(CS(C)(=O)=O)cc2)n1 . Output its inhibition only.
Response given: 8.46

Challenge: // Input: O=C1Nc2ccccc2/C1=C1\CCc2cc(O)ccc21 . Output its inhibition only.
Response given: 1.9

###

target: Serine/threonine-protein kinase PLK1 (Homo sapiens); details: at 0.1 µM;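 also: reported values are mean PLK1 inhibition, measured as part of the GSK PKIS profiling set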
Rule: inhibition under 4% gives class 0, otherwise class 1.

Molecule	Discrete label
COc1cc(N2CCN(C(C)C)CC2)ccc1Nc1nc(Nc2cccc(F)c2C(=O)O)c2cc[nH]c2n1	class 1

Challenge: Hello, I need to know if CNC(=O)c1ncccc1Nc1nc(Nc2cc3c(cc2OC)CCCN3C(=O)CN(C)C)nc2[nH]ccc12 has measured inhibition not below 4%. Thanks!
Response given: class 1

Challenge: Hello, I need to know if CS(=O)(=O)Nc1ccc(-c2ccc3c(NC(=O)C4CC4)n[nH]c3c2)cc1 has measured inhibition not below 4%. Thanks!
Response given: class 1

Challenge: Hello, I need to know if NS(=O)(=O)c1cccc(N/C=C2\C(=O)Nc3ccccc32)c1 has measured inhibition not below 4%. Thanks!
Response given: class 0

Challenge: Hello, I need to know if CC1=C(C(=O)Nc2ccc3[nH]nc(C)c3c2)C(c2ccc(C(F)(F)F)cc2)CC(=O)N1 (stereo not given) has measured inhibition not below 4%. Thanks!
Response given: class 0

###

molecular target: 5'-AMP-activated protein kinase catalytic subunit alpha-2 (Homo sapiens) (UniProt P54646); conditions: at 1 µM
Sequence (P54646 whole entry, looked up): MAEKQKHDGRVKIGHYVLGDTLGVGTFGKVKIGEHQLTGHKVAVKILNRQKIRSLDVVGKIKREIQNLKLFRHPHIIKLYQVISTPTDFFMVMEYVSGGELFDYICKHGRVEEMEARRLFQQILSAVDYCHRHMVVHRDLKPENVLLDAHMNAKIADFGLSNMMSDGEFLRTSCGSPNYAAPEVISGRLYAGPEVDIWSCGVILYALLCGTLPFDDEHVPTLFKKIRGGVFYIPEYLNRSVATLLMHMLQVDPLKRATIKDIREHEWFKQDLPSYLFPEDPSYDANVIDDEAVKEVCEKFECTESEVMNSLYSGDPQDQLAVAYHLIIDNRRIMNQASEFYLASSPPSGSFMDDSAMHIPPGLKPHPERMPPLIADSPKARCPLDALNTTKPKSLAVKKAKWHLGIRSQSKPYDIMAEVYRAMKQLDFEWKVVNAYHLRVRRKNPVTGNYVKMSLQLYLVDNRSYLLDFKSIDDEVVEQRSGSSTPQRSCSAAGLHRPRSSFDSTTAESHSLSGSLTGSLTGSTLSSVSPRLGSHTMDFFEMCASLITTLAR
Description: GSK_PKIS: AMPKA2 (A2B1G1) mean inhibition at 1 uM [Nanosyn]
Catalogue of molecules with associated inhibition
Your answer is read as %, so omit the unit and give the number.

The cases that follow already have their inhibition on record.
Smi	Readout unit	inhibition
O=C(O[C@H]1CN[C@H](C#Cc2cc3ncnc(Nc4ccc5c(cnn5Cc5ccccc5)c4)c3s2)C1)N1CCOCC1	%	3.11
Cn1c(-c2nonc2N)nc2cnccc21	%	4.41
COc1ccc(-c2nn3ncccc3c2-c2ccnc(Nc3ccc(F)c(F)c3)n2)cc1	%	6.49
CN1CCC(n2cnc(-c3ccc(F)cc3)c2-c2ccnc(NCCO)n2)CC1	%	3.88

Okay, next one:
Challenge: // Input: CN(C)CCNC(=O)Nc1ccc(N(C)c2ccnc(Nc3ccc(CS(C)(=O)=O)cc3)n2)cc1 . Output its inhibition only.
Response given: 7.2

###

target: Cyclin-dependent kinase 2 (Homo sapiens) (UniProt P24941); details: at 1 µM;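 also: mean inhibition of the CDK2–cyclin A kinase complex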
Rule: inhibition under 4% gives F, otherwise T.

Completed entries (count: 3):
Smi	Discrete label
CN(C)CCNC(=O)Nc1ccc(N(C)c2ccnc(Nc3ccc(CS(C)(=O)=O)cc3)n2)cc1	F
CS(=O)(=O)CCNCc1ccc(-c2ccc3ncnc(Nc4ccc(OCc5ccccc5)cc4)c3c2)o1	F
CCN1CCC(C(=O)Nc2n[nH]c3nnc(-c4cccc(F)c4F)cc23)CC1	T

Challenge: Hello, I need to know if COc1c(C(N)=O)cc(-c2ccc(Cl)cc2)cc1-c1ccc(S(N)(=O)=O)cc1 has measured inhibition not below 4%. Thanks!
Response given: F

Challenge: Hello, I need to know if Cn1c(-c2nonc2N)nc2cnccc21 has measured inhibition not below 4%. Thanks!
Response given: T

Challenge: Hello, I need to know if Cc1cc(O)cc(C)c1/C=C/c1cncc(C(=O)OC(C)(C)C)c1 has measured inhibition not below 4%. Thanks!
Response given: F

Challenge: Hello, I need to know if Cc1ccc(-c2cc3c(NC(=O)C4CC4)ncnc3o2)cc1 has measured inhibition not below 4%. Thanks!
Response given: F

Challenge: Hello, I need to know if Cc1cc(O)cc(C)c1/C=C/c1cncc(C(N)=O)c1 has measured inhibition not below 4%. Thanks!
Response given: F

Challenge: Hello, I need to know if CNC(=O)c1ncccc1Nc1nc(Nc2cc3c(cc2OC)CCCN3C(=O)CN(C)C)nc2[nH]ccc12 has measured inhibition not below 4%. Thanks!
Response given: T

Challenge: Hello, I need to know if O=C1Nc2ccccc2/C1=C1\CCc2cc(O)ccc21 has measured inhibition not below 4%. Thanks!
Response given: T

###

biological target: Fibroblast growth factor receptor 3 (Homo sapiens); settings: at 1 µM
Observed property: inhibition
I'd appreciate it if you included the unit after the number.

The cases that follow already have their inhibition on record.
Smi	inhibition
O=C(O[C@H]1CN[C@H](C#Cc2cc3ncnc(Nc4ccc(OCc5cccc(F)c5)c(Cl)c4)c3s2)C1)N1CCOCC1	6.62%
OCCCNc1nccc(-c2c(-c3ccc(F)cc3)nn3cc(C(F)(F)F)ccc23)n1	1.53%
N#Cc1cccc(Nc2ncc(-c3ccccc3)o2)c1	4.48%
Cc1cc(O)cc(C)c1/C=C/c1cncc(C(N)=O)c1	4.79%
c1ccc(-c2n[nH]cc2-c2ccnc(-c3ccc(OCCn4ccnc4)cc3)c2)nc1	4.74%

Okay, next one:
Challenge: Specify the recorded inhibition for CCN1CCC(C(=O)Nc2n[nH]c3nnc(-c4cccc(F)c4F)cc23)CC1 , system: Fibroblast growth factor receptor 3 (Homo sapiens).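 Also: values reported are mean percent inhibition of FGFR3 activity.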
Response given: 2.01%

###

Catalogue of molecules with associated inhibition
target: Serine/threonine-protein kinase MRCK beta (Homo sapiens); details: at 1 µM;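 also: averaged inhibition values against MRCK beta, part of the GSK PKIS profiling dataset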
Your answer is read as %, so omit the unit and give the number.

Molecule	Assay system	Readout unit	Reading
CS(=O)(=O)Nc1ccc(-c2cc(-c3ccccc3)cc(C(N)=O)c2N)cc1	Serine/threonine-protein kinase MRCK beta (Homo sapiens)	%	1.3
CC1=C(C(=O)Nc2ccc3[nH]nc(C)c3c2)C(c2ccc(C(F)(F)F)cc2)CC(=O)N1 (stereo not drawn)	Serine/threonine-protein kinase MRCK beta (Homo sapiens)	%	37.4
CS(=O)(=O)CCNCc1ccoc1-c1ccc2ncnc(Nc3ccc(OCc4ccccc4)cc3)c2c1	Serine/threonine-protein kinase MRCK beta (Homo sapiens)	%	-2.47
CCS(=O)(=O)c1ccc(OC)c(Nc2ncc(-c3cccc(C(C)=O)c3)o2)c1	Serine/threonine-protein kinase MRCK beta (Homo sapiens)	%	-0.03
CS(=O)(=O)CCNCc1ccc(-c2ccc3ncnc(Nc4ccc(OCc5cccc(C(F)(F)F)c5)cc4)c3c2)o1	Serine/threonine-protein kinase MRCK beta (Homo sapiens)	%	2
O=C1Nc2ccccc2/C1=C1\CCc2cc(O)ccc21	Serine/threonine-protein kinase MRCK beta (Homo sapiens)	%	1.65

Challenge: // Input: COC(=O)Nc1nc2ccc(Oc3ccc(NC(=O)Nc4cc(C(F)(F)F)ccc4F)cc3)cc2s1 . Output its inhibition only.
Response given: 1.68

###

biological target: Discoidin domain-containing receptor 2 (Homo sapiens) (UniProt Q16832); settings: at 0.1 µM;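 also: reported values are mean percent inhibition of DDR2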
Sequence (Q16832 whole entry, the tested form may be a part): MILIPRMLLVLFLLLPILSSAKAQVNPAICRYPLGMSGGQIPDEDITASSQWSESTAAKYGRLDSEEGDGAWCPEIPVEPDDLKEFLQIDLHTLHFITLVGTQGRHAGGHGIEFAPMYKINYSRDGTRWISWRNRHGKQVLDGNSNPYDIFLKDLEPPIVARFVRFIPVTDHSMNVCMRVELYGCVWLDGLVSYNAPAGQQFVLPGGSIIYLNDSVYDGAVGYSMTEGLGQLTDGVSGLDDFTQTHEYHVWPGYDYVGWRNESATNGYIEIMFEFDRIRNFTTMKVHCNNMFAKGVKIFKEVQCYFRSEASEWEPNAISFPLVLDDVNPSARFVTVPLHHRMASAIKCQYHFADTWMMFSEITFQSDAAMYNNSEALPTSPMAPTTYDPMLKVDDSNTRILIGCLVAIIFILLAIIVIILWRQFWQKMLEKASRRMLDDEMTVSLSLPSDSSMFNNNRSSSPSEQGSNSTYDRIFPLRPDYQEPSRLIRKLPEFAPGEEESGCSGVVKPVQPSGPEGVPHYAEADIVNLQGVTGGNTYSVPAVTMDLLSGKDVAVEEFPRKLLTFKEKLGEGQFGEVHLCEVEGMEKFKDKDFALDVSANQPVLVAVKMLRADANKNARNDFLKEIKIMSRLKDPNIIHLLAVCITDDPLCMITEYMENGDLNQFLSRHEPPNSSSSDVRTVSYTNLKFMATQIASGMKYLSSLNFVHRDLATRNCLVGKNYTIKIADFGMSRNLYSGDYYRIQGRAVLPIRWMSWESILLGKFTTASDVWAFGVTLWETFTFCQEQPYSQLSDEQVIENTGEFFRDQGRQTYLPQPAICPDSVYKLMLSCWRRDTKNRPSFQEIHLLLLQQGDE
Observed property: inhibition (%)
Your answer is read as %, so omit the unit and give the number.

Compound	inhibition [%]
NC(=O)c1ccc2c(-c3ccnc(NCCCO)n3)c(-c3ccc(F)cc3)nn2c1	4.1
CN(C)CCNC(=O)Nc1ccc(N(C)c2ccnc(Nc3ccc(CS(C)(=O)=O)cc3)n2)cc1	0.92
O=C(O[C@H]1CN[C@H](C#Cc2cc3ncnc(Nc4ccc5c(ccn5Cc5cc(F)ccc5F)c4)c3s2)C1)N1CCOCC1	2.04
CNC(=O)c1sc(-n2cnc3cc(OC)c(OC)cc32)cc1OCc1ccccc1C(F)(F)F	2.3
CN1CCC(n2cnc(-c3ccc(F)cc3)c2-c2ccnc(NCCO)n2)CC1	2.1

Challenge: // Input: CNC(=O)c1cncc(/C=C/c2ccccc2C)c1 . Output its inhibition only.
Response given: 0.33

Challenge: // Input: NS(=O)(=O)c1ccc(N/N=C2\C(=O)Nc3ccc(C(=O)NCc4ccncc4)cc32)cc1 . Output its inhibition only.
Response given: -0.45

Challenge: // Input: CC1=C(C(=O)Nc2ccc3[nH]ncc3c2)C(c2ccc(F)cc2)N=C(c2ccc(C(F)(F)F)nc2)N1 (centres undefined) . Output its inhibition only.
Response given: 1.54

Challenge: // Input: COc1ccc2ncn(-c3cc(O[C@H](C)c4ccccc4C(F)(F)F)c(C(N)=O)s3)c2c1 . Output its inhibition only.
Response given: -0.82

Challenge: // Input: CC1=C(C(=O)Nc2ccc3[nH]nc(C)c3c2)C(c2ccc(C(F)(F)F)cc2)CC(=O)N1 (centres undefined) . Output its inhibition only.
Response given: 3.33

Challenge: // Input: COc1cccc(-n2ncc3c(N/N=C/c4ccc(C(=O)NCCN(C)C)cc4)ncnc32)c1 . Output its inhibition only.
Response given: 7.86

Challenge: // Input: NS(=O)(=O)c1cccc(N/C=C2\C(=O)Nc3ccccc32)c1 . Output its inhibition only.
Response given: 4.35

Challenge: // Input: OCCCNc1nccc(-c2c(-c3ccc(F)cc3)nn3cc(C(F)(F)F)ccc23)n1 . Output its inhibition only.
Response given: 3.25

Challenge: // Input: O=C(O[C@H]1CN[C@H](C#Cc2cc3ncnc(Nc4ccc(OCc5cccc(F)c5)c(Cl)c4)c3s2)C1)N1CCOCC1 . Output its inhibition only.
Response given: 1

Challenge: // Input: Cc1cc(O)cc(C)c1/C=C/c1cncc(C(N)=O)c1 . Output its inhibition only.
Response given: 2.69

Challenge: // Input: CS(=O)(=O)CCNCc1ccc(-c2ccc3ncnc(Nc4ccc(OCc5ccccc5)cc4)c3c2)o1 . Output its inhibition only.
Response given: 1.74

Challenge: // Input: CS(=O)(=O)Nc1ccc(-c2ccc3c(NC(=O)C4CC4)n[nH]c3c2)cc1 . Output its inhibition only.
Response given: 1.42

Challenge: // Input: Cc1cc(O)cc(C)c1/C=C/c1cncc(C(=O)OC(C)(C)C)c1 . Output its inhibition only.
Response given: 1.51

Challenge: // Input: Fc1ccc(Nc2nccc(-c3c(-c4ccc(C(F)(F)F)cc4)nn4ncccc34)n2)cc1F . Output its inhibition only.
Response given: 0.84
